The compounds listed here are annotated with their IC50.
biological target: PIM (PIM-1, PIM-2, and/or PIM-3); test: PIM-1, PIM-2 and PIM-3 inhibition, biochemical chemiluminescence assays (Kinase Glo, IC50 determination); settings: Table 1 activity class; PIM refers to PIM-1, PIM-2, and/or PIM-3; read-out: PIM IC50 (Activity B)
Counter-ions that a name gives are not always drawn.

{"compound": "O=c1[nH]c(CN2CCN(CCn3ccnc3)CC2)nc2c1oc1ccc(Br)cc12 [Compound 113]", "IC50": "< 10 µM"}
{"compound": "O=C(Nc1ccc(-c2nc3c(oc4ccc(Br)cc43)c(=O)[nH]2)c(Cl)c1)C1CCCNC1 (stereo not shown) [Compound 140]", "IC50": "< 10 µM"}
{"compound": "O=C(Cc1cccnc1)Nc1ccc(-c2nc3c(oc4ccc(Br)cc43)c(=O)[nH]2)c(Cl)c1 [Compound 322]", "IC50": "< 10 µM"}
{"compound": "COc1ccc2oc3c(=O)[nH]c(-c4ccncc4Cl)nc3c2c1 [Compound 152]", "IC50": "< 10 µM"}
{"compound": "O=c1[nH]c(CN2CC3CCC2C3O)nc2c1oc1ccc(Br)cc12 (racemic) [Compound 332]", "IC50": "< 10 µM"}
{"compound": "O=c1[nH]c(CN2C[C@@H](O)[C@@H](O)C2)nc2c1oc1ccc(Br)cc12 [Compound 348]", "IC50": "< 10 µM"}
{"compound": "O=c1[nH]c(CN2CC[C@H](O)C2)nc2c1oc1ccc(NC3CCCCC3)cc12 [Compound 449]", "IC50": "< 10 µM"}
{"compound": "O=c1[nH]c(CN2CC[C@H](O)C2)nc2c1oc1ccc(NCc3ccccc3)cc12 [Compound 443]", "IC50": "< 10 µM"}
{"compound": "O=c1[nH]c([C@@H]2Cc3ccccc3N2)nc2c1oc1ccc(Br)cc12 [Compound 510]", "IC50": "< 10 µM"}
{"compound": "O=C(c1ccncc1)N1CCC(c2nc3c(oc4ccc(Br)cc43)c(=O)[nH]2)CC1 [Compound 236]", "IC50": "< 10 µM"}
{"compound": "O=c1[nH]c(CC2CCNCC2)nc2c1oc1ccc(Br)cc12 [Compound 122]", "IC50": "< 10 µM"}
{"compound": "O=c1[nH]c(CNCc2ccccn2)nc2c1oc1ccc(Br)cc12 [Compound 254]", "IC50": "< 10 µM"}
{"compound": "COCCN1CCN(Cc2nc3c(oc4ccc(Br)cc43)c(=O)[nH]2)CC1 [Compound 151]", "IC50": "< 10 µM"}
{"compound": "O=C(Nc1ccc(-c2nc3c(oc4ccc(Br)cc43)c(=O)[nH]2)c(Cl)c1)c1ccco1 [Compound 321]", "IC50": "< 10 µM"}
{"compound": "CNCc1ccc(-c2nc3c(oc4ccc(Br)cc43)c(=O)[nH]2)cc1 [Compound 382]", "IC50": "< 10 µM"}
{"compound": "O=c1[nH]c(-c2ccc(NCc3c[nH]cn3)cc2Cl)nc2c1oc1ccc(Br)cc12 [Compound 139]", "IC50": "< 10 µM"}
{"compound": "O=C1CC(O)CN1Cc1nc2c(oc3ccc(Br)cc32)c(=O)[nH]1 (stereo not shown) [Compound 286]", "IC50": "< 10 µM"}
{"compound": "O=c1[nH]c([C@@H]2C[C@H](O)CN2)nc2c1oc1ccc(Br)cc12 [Compound 511]", "IC50": "< 10 µM"}
{"compound": "O=c1[nH]c([C@@H]2C[C@@H](F)CN2)nc2c1oc1ccc(Br)cc12 [Compound 514]", "IC50": "< 10 µM"}
{"compound": "O=c1[nH]c(-c2cccs2)nc2c1oc1ccc(Br)cc12 [Compound 59]", "IC50": "< 10 µM"}
{"compound": "Nc1ccc(-c2nc3c(oc4ccc(Br)cc43)c(=O)[nH]2)cc1 [Compound 354]", "IC50": "< 10 µM"}
{"compound": "O=c1[nH]c(-c2ccncc2Cl)nc2c1oc1ccc(Br)cc12 [Compound 112]", "IC50": "< 10 µM"}
{"compound": "O=c1[nH]c(CN2CC[C@H](O)C2)nc2c1oc1ccc3c(c12)OCO3 [Compound 476]", "IC50": "< 10 µM"}
{"compound": "O=c1[nH]c(CN2CC[C@H](O)C2)nc2c1oc1ccc(NCc3cccc(C(F)(F)F)c3)cc12 [Compound 464]", "IC50": "< 10 µM"}
{"compound": "Nc1cccc(-c2nc3c(oc4ccc(Br)cc43)c(=O)[nH]2)c1 [Compound 355]", "IC50": "< 10 µM"}
{"compound": "O=c1[nH]c([C@@H]2CCCN2)nc2c1oc1ccc(Cl)cc12 [Compound 507, Hydrochloride]", "IC50": "< 10 µM"}
{"compound": "CN(C)CCCC(=O)N1CCC(c2nc3c(oc4ccc(Br)cc43)c(=O)[nH]2)CC1 [Compound 207]", "IC50": "< 10 µM"}
{"compound": "O=c1[nH]c([C@@H]2CC(F)(F)CN2)nc2c1oc1ccc(Br)cc12 [Compound 512]", "IC50": "< 10 µM"}
{"compound": "O=c1[nH]c(CN2CCC[C@@H]2CO)nc2c1oc1ccc(Br)cc12 [Compound 344]", "IC50": "< 10 µM"}
{"compound": "Nc1n[nH]c2ccc(-c3nc4c(oc5ccc(Br)cc54)c(=O)[nH]3)cc12 [Compound 220]", "IC50": "< 10 µM"}
{"compound": "Nc1ccc(-c2nc3c(oc4ccc(Br)cc43)c(=O)[nH]2)c(Cl)c1 [Compound 34]", "IC50": "< 10 µM"}
{"compound": "COC(=O)c1ccc(-c2nc3c(oc4ccccc43)c(=O)[nH]2)cc1 [Compound 53]", "IC50": "< 10 µM"}
{"compound": "CC(=O)N[C@H]1CCN(Cc2nc3c(oc4ccc(Br)cc43)c(=O)[nH]2)C1 [Compound 365]", "IC50": "< 10 µM"}
{"compound": "O=C(Nc1ccc(Cl)c(-c2nc3c(oc4ccc(Br)cc43)c(=O)[nH]2)c1)c1ccnc(Cl)c1 [Compound 326]", "IC50": "< 10 µM"}
